- Tested Target: β-catenin (Homo sapiens)
- Sequence (P35222 1-781): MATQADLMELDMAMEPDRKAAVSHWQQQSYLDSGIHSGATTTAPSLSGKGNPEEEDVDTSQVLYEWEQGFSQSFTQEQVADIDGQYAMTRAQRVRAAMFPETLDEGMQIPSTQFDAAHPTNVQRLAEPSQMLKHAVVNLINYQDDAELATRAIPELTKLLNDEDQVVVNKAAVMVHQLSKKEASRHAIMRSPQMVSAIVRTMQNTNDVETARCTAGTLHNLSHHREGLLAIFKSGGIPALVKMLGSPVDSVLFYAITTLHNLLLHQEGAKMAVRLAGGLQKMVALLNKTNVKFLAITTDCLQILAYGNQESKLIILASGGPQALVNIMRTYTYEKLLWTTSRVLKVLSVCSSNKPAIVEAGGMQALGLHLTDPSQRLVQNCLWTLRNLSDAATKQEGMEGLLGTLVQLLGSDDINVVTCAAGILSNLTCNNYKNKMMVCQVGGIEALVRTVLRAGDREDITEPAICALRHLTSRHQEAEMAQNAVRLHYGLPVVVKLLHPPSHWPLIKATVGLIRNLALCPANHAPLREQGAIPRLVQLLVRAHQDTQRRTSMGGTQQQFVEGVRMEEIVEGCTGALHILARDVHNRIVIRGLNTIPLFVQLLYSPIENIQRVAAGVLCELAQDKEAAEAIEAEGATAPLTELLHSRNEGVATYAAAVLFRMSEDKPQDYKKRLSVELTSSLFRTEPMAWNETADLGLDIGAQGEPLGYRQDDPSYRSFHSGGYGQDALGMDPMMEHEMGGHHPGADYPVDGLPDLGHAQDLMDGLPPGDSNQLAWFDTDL
- Assay Protocol: KD50 measurement using competitive fluorescence polarization (FP) with labelled TCF4
- Type: binding
- Test Parameters: fluorescence polarization, β-catenin; read-out: β-Cat FP KD
Where a SMILES comes first, the peptide text is derived from it.
Measurement Kind: Kd

Here is how some molecules turned out for Kd.
CC[C@H](C)[C@H]1NC(=O)[C@@H](CO)NC(=O)[C@@H](CCC(=O)O)NC(=O)[C@H](Cc2c[nH]c3ccccc23)NC(=O)CCCCn2cc(nn2)CC(C(N)=O)NC(=O)[C@H](Cc2c[nH]c3ccccc23)NC(=O)[C@H](C(C)C)NC(=O)[C@H](CCCNC(=N)N)NC(=O)[C@@H](CCC(N)=O)NC(=O)[C@@H](C(C)C)NC(=O)[C@@H](Cc2cnc[nH]2)NC(=O)[C@H](CCC(=O)O)NC(=O)[C@H](CC(=O)O)NC(=O)[C@H](CC(C)C)NC1=O (some centres unmarked) [compound 33]
> 30 µM
CC[C@H](C)[C@H](NC(=O)[C@H](CC(C)C)NC(=O)[C@H](Cc1ccccc1)NC(=O)[C@H](Cc1c[nH]c2ccccc12)NC(=O)[C@H](Cc1c[nH]cn1)NC(=O)[C@H](CCCNC(=N)N)NC(=O)[C@H](CO)NC(=O)[C@@H](N)Cc1c[nH]c2ccccc12)C(=O)N[C@@H](CO)C(=O)N[C@@H](Cc1ccccc1)C(=O)N[C@@H](Cc1c[nH]c2ccccc12)C(N)=O [compound 91] (H-WSRHWFLISFW-NH2)
> 30 µM
CC[C@H](C)[C@H](NC(=O)[C@H](CC(C)C)NC(=O)[C@H](Cc1ccccc1)NC(=O)[C@H](Cc1c[nH]c2ccccc12)NC(=O)[C@H](CCSC)NC(=O)[C@H](CCCNC(=N)N)NC(=O)[C@H](CO)NC(=O)[C@@H](N)CC(=O)O)C(=O)N[C@@H](CO)C(=O)N[C@@H](Cc1ccccc1)C(=O)N[C@@H](Cc1c[nH]c2ccccc12)C(N)=O [compound 85] (H-DSRMWFLISFW-NH2)
> 30 µM

Inquiry: Recorded Kd for CCCCCCCCCCCCCCCCCC(=O)N[C@@H](Cc1c[nH]c2ccccc12)C(=O)N(C)[C@@H](Cc1c[nH]c2ccccc12)C(=O)N[C@@H](CCC(=O)O)C(=O)NC(C)(CO)C(=O)N[C@H](C(=O)N[C@@H](CC(C)C)C(=O)N[C@@H](CC(=O)O)C(=O)N[C@@H](CCC(=O)O)C(=O)N[C@@H](Cc1c[nH]cn1)C(=O)NC(C)(C(=O)N[C@@H](CCC(N)=O)C(=O)N[C@@H](CCCNC(=N)N)C(=O)N[C@H](C(=O)N[C@@H](Cc1c[nH]c2ccccc12)C(=O)O)C(C)C)C(C)C)[C@@H](C)CC (single isomer, unassigned) [393/500] , please?
Reply text: > 30 µM

Inquiry: Recorded Kd for CC[C@H](C)[C@H](NC(=O)[C@H](CC(C)C)NC(=O)[C@@H](NC(=O)[C@H](Cc1c[nH]c2ccccc12)NC(=O)[C@@H](N)CCCCN)[C@@H](C)CC)C(=O)N[C@@H](CS)C(=O)N[C@@H](Cc1ccccc1)C(=O)N[C@@H](Cc1c[nH]c2ccccc12)C(=O)NCC(=O)O [compound 117] (H-KWILICFWG-OH) , please?
Reply text: > 30 µM

Inquiry: Recorded Kd for CC[C@H](C)[C@H](NC(=O)[C@H](CC(C)C)NC(=O)[C@@H](NC(=O)[C@H](Cc1c[nH]c2ccccc12)NC(=O)[C@@H](N)CCCNC(=N)N)[C@@H](C)CC)C(=O)N[C@@H](CS)C(=O)N[C@@H](Cc1ccccc1)C(=O)N[C@@H](Cc1c[nH]c2ccccc12)C(=O)NCC(=O)O [compound 119] (H-RWILICFWG-OH) , please?
Reply text: 1 to 10 µM

Inquiry: Recorded Kd for CC[C@H](C)[C@@H]1NC(=O)[C@H](CC(C)C)NC(=O)[C@H](Cc2ccccc2)NC(=O)[C@H](Cc2c[nH]c3ccccc23)NC(=O)[C@H](CCSC)NC(=O)CCCNC(=O)C[C@@H](C(=O)O)NC(=O)[C@H](Cc2c[nH]c3ccccc23)NC(=O)[C@H](C)NC(=O)[C@H](CS)NC1=O [compound 191] (HELM PEPTIDE1{[O=C(CCCN[*:1])[*:2]].M.W.F.L.I.C.A.W.D}$PEPTIDE1,PEPTIDE1,1:R1-10:R3$$$V2.0) , please?
Reply text: 0.4 to 1 µM

Inquiry: Recorded Kd for CC[C@H](C)[C@@H]1NC(=O)[C@H](CC(C)C)NC(=O)[C@H](Cc2ccccc2)NC(=O)[C@H](Cc2c[nH]c3ccccc23)NC(=O)[C@@H](NC(C)=O)CCCCNC(=O)CC[C@@H](C(=O)O)NC(=O)[C@H](Cc2c[nH]c3ccccc23)NC(=O)[C@H](Cc2ccccc2)NC(=O)[C@H](CO)NC1=O [compound 199] (HELM PEPTIDE1{[ac].K.W.F.L.I.S.F.W.E}$PEPTIDE1,PEPTIDE1,2:R3-10:R3$$$V2.0) , please?
Reply text: 0.4 to 1 µM

Inquiry: Recorded Kd for CC[C@H](C)[C@H](NC(=O)[C@H](CC(C)C)NC(=O)[C@H](Cc1ccccc1)NC(=O)[C@H](Cc1c[nH]c2ccccc12)NC(=O)[C@H](Cc1c[nH]c2ccccc12)NC(=O)[C@H](CCCNC(=N)N)NC(=O)[C@H](CO)NC(=O)[C@@H](N)CCCCN)C(=O)N[C@@H](CO)C(=O)N[C@@H](Cc1ccccc1)C(=O)N[C@@H](Cc1c[nH]c2ccccc12)C(N)=O [compound 95] (H-KSRWWFLISFW-NH2) , please?
Reply text: > 30 µM

Inquiry: Recorded Kd for CC[C@H](C)[C@H](NC(=O)[C@H](CC(C)C)NC(=O)[C@H](Cc1ccccc1)NC(=O)[C@H](Cc1c[nH]c2ccccc12)NC(=O)[C@H](CCSC)NC(=O)[C@H](CCCNC(=N)N)NC(=O)[C@H](CO)NC(=O)[C@@H](N)CCSC)C(=O)N[C@@H](CO)C(=O)N[C@@H](CC(C)C)C(=O)N[C@@H](Cc1c[nH]c2ccccc12)C(=O)NCC(=O)O [compound 68] (H-MSRMWFLISLWG-OH) , please?
Reply text: > 30 µM

Inquiry: Recorded Kd for CC[C@@H]1NC(=O)[C@H]([C@@H](C)CC)NC(=O)[C@H](CC(C)C)NC(=O)[C@H](C2CCCCC2)NC(=O)[C@H](Cc2c[nH]c3ccccc23)NC(=O)[C@@H](NC(C)=O)CCCCNC(=O)C[C@@H](C(=O)O)NC(=O)[C@H](Cc2c[nH]c3ccccc23)NC(=O)[C@H](C)NC1=O [compound 262] (HELM PEPTIDE1{[ac].K.W.[O=C([C@@H](N[*:1])C1CCCCC1)[*:2]].L.I.[Abu].A.W.D}$PEPTIDE1,PEPTIDE1,2:R3-10:R3$$$V2.0) , please?
Reply text: 0.4 to 1 µM
